Test system: DMS 114 small cell lung
Assay explanation: NCI tumour cell line growth inhibition, 48 h
Readout label: TGI

Examples with their reported TGI follow.
Cc1nc2cc(Nc3ccccc3C(=O)O)ccc2s1 ... > 100 µM
CC(=O)NC(C=O)C(O[C@H](C)C(=O)NC(C)C(=O)NC(CCC(N)=O)C(=O)OCc1ccccc1)C(O)C(O)COC(=O)CCNc1c2ccccc2nc2cccc([N+](=O)[O-])c12 (stereo partly drawn) ... 10.7 µM
CC12CCC(CC1)C(C)(C)O2 ... 123 µM
CC([O-])=C1C(=O)c2ccccc2C1=O.CC([O-])=C1C(=O)c2ccccc2C1=O.CC[O-].CC[O-].[Ti+4] ... > 100 µM
COc1cccc(N2C(=O)C3C4C=C5c6ccccc6N(c6ccccc6)C5(C3C2=O)[C@H]2C(=O)N(c3cccc(OC)c3)C(=O)[C@@H]42)c1 (stereo partly drawn) ... > 100 µM

Which TGI value is on record for CCn1c2ccccc2c2c(-c3ccccc3)cc3c(c21)C(=O)N(c1ccccc1)C3=O ?
> 100 µM

Which TGI value is on record for COc1ccc(NC(=O)CC(=O)n2nc(C)c(N=Nc3ccccc3C(=O)O)c2C)cc1 ?
> 100 µM

Which TGI value is on record for Cc1ccc(S(=O)(=O)N/N=C/C(C)C)cc1 ?
> 100 µM

====

System: SNB-78 CNS
Assay explanation: NCI tumour cell line growth inhibition, 48 h
Readout label: TGI

Examples with their reported TGI follow.
O=C(NCCCl)SCCO ... > 100 µM
c1ccc(OCc2nnc3n2N=C(c2ccccc2)CS3)cc1 ... > 100 µM

Under SNB-78 CNS: TGI value of NC(=S)N1N=C2c3ccccc3CC[C@H]2[C@@H]1c1ccc(Cl)cc1 ?
> 100 µM

====

System: SNB-19 CNS
Assay explanation: NCI tumour cell line growth inhibition, 48 h
A collection of molecules and their measured TGI

Examples with their reported TGI follow.
CC(=O)OC1=CC2(OC(C)=O)CC(C)(C)C1C1C(=O)C=CC(=O)C12 (centres undefined) ... > 100 µM
COC1(CC[C@@H](C)COC2OC(CO)C(O)C(O)C2O)O[C@H]2C[C@H]3[C@@H]4CC=C5C[C@@H](OC6OC(CO)C(O)C(OC7OC(CO)C(O)C(O)C7O)C6OC6OC(C)C(O)C(O)C6O)CC[C@]5(C)[C@H]4CC[C@]3(C)[C@H]2[C@@H]1C (some centres undefined) ... 21.2 µM
CC(=O)OC1[C@H](OC(C)=O)C2=C(C)[C@@H](OC(C)=O)C[C@@]2(C(C)(C)O)[C@@H](OC(C)=O)[C@H]2[C@@]1(C)[C@@H](OC(C)=O)CC(OC(C)=O)[C@]21CO1 (some centres undefined) ... > 100 µM
COc1cc2c(cc1OC)C(=O)/C(=C/c1cc(C)cc(C)c1)C2 ... > 89.1 µM
Cn1cc(C(=O)c2ccccc2)cc(C(=O)c2ccccc2)c1=O ... > 100 µM
COc1ccc(NCC(=O)Nn2c(-c3ccccc3)nc3ccccc3c2=O)cc1 ... > 100 µM

Under SNB-19 CNS: TGI value of COc1cc2c(/C=C3/C(=O)N(C)c4ccc(O)cc43)c(Cl)[nH]c2cc1C ?
5.35 µM

Under SNB-19 CNS: TGI value of O=C1C(c2c(O)[nH]c3ccc(Br)cc23)=Nc2ccc(Br)cc21 ?
92.4 µM
